B1: library; a variant is named by its letters at N, in order (parent)
chain: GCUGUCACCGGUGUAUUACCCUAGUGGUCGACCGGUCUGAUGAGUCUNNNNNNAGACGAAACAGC

# Variants of: B1
# EXPERIMENT: normalized RNA/DNA level with ligand (relative to sTRSVctl = 100) (log10 (% of sTRSVctl)); ligand: hypoxanthine (xanthine aptamer); higher = less ribozyme self-cleavage, higher mRNA level
# CONDITION_LABEL: ligand concentration (+) RNA-Seq: 5 mM, HEK293T, reporter: mCherry (pCS4076), ligand present: yes
READOUT_NAME: normalized RNA/DNA level with ligand (log10)
One number for each entry.

Here are 3 variants together with their reported answers.
AAUCCC; 1.94
UGAUAU; 1.96
ACGGAG; 1.62

Give measured normalized RNA/DNA level with ligand (log10) for every item shown.
1. AAGUUA
2. GGAGCC

1: 1.89; 2: 1.92

Give measured normalized RNA/DNA level with ligand (log10) for every item shown.
1. CGUAAG
2. UUGAGC
3. GCAUAG
4. AGAUGU
5. AUAUGC
6. GUAUAC

[1.95, 1.98, 1.86, 1.9, 1.94, 1.94]

Give measured normalized RNA/DNA level with ligand (log10) for every item shown.
1. CGAACG
2. GUUAGU
3. GAGAUC
4. AGUAGC
5. CAUGUC
6. ACCGGU
7. UUAGGU

1.96
1.9
1.94
1.91
1.91
1.99
1.92

Give measured normalized RNA/DNA level with ligand (log10) for every item shown.
1. UUAGCA
2. AUGGAG
3. CCGAUA

[1.95, 1.71, 1.92]

Give its normalized RNA/DNA level with ligand (log10) value. Item: UUAGAG
1.83
